Cited source: patent US20240239894A1

# Target under test: T1, MurineB7-H4 (Mus musculus, UniProt Q7TSP5)
# T1 construct: Mouse B7H4 ECD; FLAG (C); 10His (C); made in house
# T1 sequence (Q7TSP5 25-257 limits assumed): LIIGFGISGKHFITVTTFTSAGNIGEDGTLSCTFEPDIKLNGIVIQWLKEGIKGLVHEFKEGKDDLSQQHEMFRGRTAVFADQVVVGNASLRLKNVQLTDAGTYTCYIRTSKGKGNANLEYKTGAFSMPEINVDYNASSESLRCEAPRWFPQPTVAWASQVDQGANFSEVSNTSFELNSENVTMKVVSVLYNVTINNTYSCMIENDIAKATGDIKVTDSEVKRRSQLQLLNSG
# Experiment: ForteBio Octet affinity
# Assay type: binding, murine
# Setup conditions: hIgG1-TM (n = 4-7)
Quantity measured: kdis
Give your result as the value with the unit written after it.

[
  {
    "Molecule": "ZY0E05-E07: anti-B7-H4 antibody clone, VH SEQ ID NO: 37, VL SEQ ID NO: 38 (antibody, V domains shown) VH: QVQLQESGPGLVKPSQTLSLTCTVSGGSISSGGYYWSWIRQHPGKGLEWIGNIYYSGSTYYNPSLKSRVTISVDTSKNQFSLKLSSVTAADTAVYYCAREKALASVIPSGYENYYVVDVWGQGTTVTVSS VL: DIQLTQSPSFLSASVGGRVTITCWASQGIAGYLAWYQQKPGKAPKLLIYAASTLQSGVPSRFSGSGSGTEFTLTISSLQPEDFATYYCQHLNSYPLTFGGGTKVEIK",
    "kdis": "0.000361 s⁻¹"
  },
  {
    "Molecule": "ZY0EP0-C07: anti-B7-H4 antibody clone, VH SEQ ID NO: 39, VL SEQ ID NO: 40 (antibody, V domains shown) VH: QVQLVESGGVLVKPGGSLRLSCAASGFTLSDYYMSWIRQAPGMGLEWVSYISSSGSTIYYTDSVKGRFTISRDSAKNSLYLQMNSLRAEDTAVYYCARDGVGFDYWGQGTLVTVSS VL: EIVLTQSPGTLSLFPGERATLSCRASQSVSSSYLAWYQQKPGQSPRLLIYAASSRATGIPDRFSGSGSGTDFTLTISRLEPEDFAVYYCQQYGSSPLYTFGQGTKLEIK",
    "kdis": "0.000524 s⁻¹"
  },
  {
    "Molecule": "ZY0EOB-F05: anti-B7-H4 antibody clone, VH SEQ ID NO: 35, VL SEQ ID NO: 36 (antibody, V domains shown) VH: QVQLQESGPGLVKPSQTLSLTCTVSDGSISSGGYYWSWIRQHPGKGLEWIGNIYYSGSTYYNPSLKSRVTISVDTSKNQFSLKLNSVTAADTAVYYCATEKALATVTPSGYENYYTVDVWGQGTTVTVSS VL: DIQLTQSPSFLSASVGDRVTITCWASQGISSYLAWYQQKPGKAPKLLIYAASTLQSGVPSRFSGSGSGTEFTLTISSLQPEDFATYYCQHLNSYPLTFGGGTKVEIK",
    "kdis": "0.000476 s⁻¹"
  },
  {
    "Molecule": "ZY0EQD-E02: anti-B7-H4 antibody clone, VH SEQ ID NO: 33, VL SEQ ID NO: 34 (antibody, V domains shown) VH: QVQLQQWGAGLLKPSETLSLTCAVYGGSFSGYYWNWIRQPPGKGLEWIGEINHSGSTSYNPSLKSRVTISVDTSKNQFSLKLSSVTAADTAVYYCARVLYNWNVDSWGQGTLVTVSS VL: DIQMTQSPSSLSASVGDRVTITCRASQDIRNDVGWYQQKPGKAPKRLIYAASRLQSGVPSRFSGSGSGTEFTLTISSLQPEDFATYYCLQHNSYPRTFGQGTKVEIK",
    "kdis": "0.126 s⁻¹"
  }
]

Recorded kdis (molecule ZY0EPQ-E02: anti-B7-H4 antibody clone, VH SEQ ID NO: 31, VL SEQ ID NO: 32 (antibody, V domains shown) VH: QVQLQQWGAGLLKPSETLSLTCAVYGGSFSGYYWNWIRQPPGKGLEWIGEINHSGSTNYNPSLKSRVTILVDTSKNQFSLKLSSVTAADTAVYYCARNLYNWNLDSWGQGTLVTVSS VL: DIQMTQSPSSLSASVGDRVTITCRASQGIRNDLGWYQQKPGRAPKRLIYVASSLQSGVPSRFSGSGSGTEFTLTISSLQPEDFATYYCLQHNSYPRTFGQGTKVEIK ): 0.0304 s⁻¹
